Test: Drug repurposing screens with cells derived from glioblastoma tumor samples (AID 1345199); further: on the % scale 0 is the no-effect control and ±100 the full control effect
Details: GBM patient neurospheres viability, ATP luminescence, 48 h; at 46.1 µM (top of the series); tumour line C
Records with an inconclusive call do not appear. Where a SMILES comes first, the peptide text is derived from it. [ ]: non-standard residue; d: D form. pGlu = O=C1CC[C@@H](C(=O)O)N1; Thz = O=C(O)[C@@H]1CSCN1
propertyName: activity, negative = cell killing (%)
Write the answer as a number in %, unit excluded.

Query activity, negative = cell killing for N=c1ccn2c(n1)O[C@H]1[C@H](O)[C@@H](CO)O[C@H]12 -5.87

Supply recorded activity, negative = cell killing for O=C1CN(/N=C/c2ccc([N+](=O)[O-])o2)C(=O)N1 here. -8.71

Indicate the recorded activity, negative = cell killing value for this compound: O=C(O)Cc1cccc(-c2cc(CCCCCCc3ccc(O[C@H]4O[C@H](CO)[C@@H](O)[C@H](O)[C@@H]4O)c(-c4cccc(CC(=O)O)c4)c3)ccc2O[C@H]2O[C@H](CO)[C@@H](O)[C@H](O)[C@@H]2O)c1 0.695

Could you please provide reported activity, negative = cell killing for CC(C(=O)O)c1ccc2c(c1)[nH]c1ccc(Cl)cc12 (stereo unspecified) ? Thanks! -19.6

Given O=C(Nc1ccc(C(=O)O)c(O)c1)c1ccccc1 , respond with its activity, negative = cell killing. -18.9

Entry [O-][n+]1ccccc1SSc1cccc[n+]1[O-] needs its activity, negative = cell killing filled in; supply it. -16.3

Consider the compound O=C(/C=C/c1ccccc1)NCCO . State its measured activity, negative = cell killing. -18.2

Name the recorded activity, negative = cell killing of the item N=C(N)N in your answer. -13.1

Specify activity, negative = cell killing for CC[C@H]1OC(=O)[C@H](C)C(=O)[C@H](C)[C@@H](O[C@@H]2O[C@H](C)C[C@H](N(C)C)[C@H]2O)[C@](C)(OC)C[C@@H](C)C(=O)[C@H](C)[C@H]2N(CCCCn3cnc(-c4cccnc4)c3)C(=O)O[C@]12C and stop. 5.5

Report activity, negative = cell killing for Cc1[nH]cnc1CN1CCc2c(c3ccccc3n2C)C1=O -28.6

Give activity, negative = cell killing for Cc1c(C(=O)O)c(O)cc2c1C(=O)c1c(O)c([C@@H]3O[C@H](CO)[C@@H](O)[C@H](O)[C@H]3O)c(O)c(O)c1C2=O 21.4

Tell me its activity, negative = cell killing given CC1(C)S[C@@H]2[C@H](NC(=O)[C@H](N)c3ccccc3)C(=O)N2[C@H]1C(=O)O as the entry. 12.5

Name the recorded activity, negative = cell killing of the compound listed here: CC(C)Cc1ccc([C@H](C)C(=O)O)cc1 8.55

Give activity, negative = cell killing for the following compound: CC(=O)SCC(CC(=O)c1ccc(C)cc1)C(=O)O (stereo unspecified) 1.92

Given the compound CCC1C(=O)OCC1Cc1cncn1C (stereo unspecified) , write its reported activity, negative = cell killing. -11.8

Consider the compound O=C(OCc1ccccc1)c1ccccc1 and give its recorded activity, negative = cell killing. -10.1

Determine its reported activity, negative = cell killing: Nc1ccc(O)c(C(=O)O)c1 2.81

Look up and state reported activity, negative = cell killing for c1ccc2sc(SN3CCOCC3)nc2c1 -23.9

Look up and state reported activity, negative = cell killing for CCCCCCOc1ccccc1C(N)=O -6.65

Please report the measured activity, negative = cell killing for CC1(C)[C@@H](O[C@H]2O[C@H](C(=O)O)[C@@H](O)[C@H](O)[C@H]2O[C@@H]2O[C@H](C(=O)O)[C@@H](O)[C@H](O)[C@H]2O)CC[C@]2(C)[C@H]3C(=O)C=C4[C@@H]5C[C@@](C)(C(=O)O)CC[C@]5(C)CC[C@@]4(C)[C@]3(C)CC[C@@H]12 21.2

Recall and state the measured activity, negative = cell killing for C=CCCCCCCCCC(=O)O . 6.77

Give the value of activity, negative = cell killing reported for the following: CC1(C)S[C@@H]2[C@H](NC(=O)[C@H](NC(=O)N3CCN(S(C)(=O)=O)C3=O)c3ccccc3)C(=O)N2[C@H]1C(=O)O -22.9

Output measured activity, negative = cell killing for this item: CCCCCCCCCCCC(=O)[O][Sn]([CH2]CCC)([CH2]CCC)[O]C(=O)CCCCCCCCCCC -3.83

Give activity, negative = cell killing for the following compound: Cc1cc(O)c2ccccc2c1O 5.51

Note down activity, negative = cell killing recorded for O=C(O)[C@H](CC(=O)N1C[C@H]2CCCC[C@H]2C1)Cc1ccccc1 -20.5

Could you please provide reported activity, negative = cell killing for C[C@H](O)[C@H](O)[C@H]1CNc2nc(N)[nH]c(=O)c2N1 ? Thanks! 11.1

Determine from records and report activity, negative = cell killing for Nc1c(CC(=O)O)cccc1C(=O)c1ccc(Br)cc1 10.2

Annotate the compound O=C1CC[C@@H](C(=O)N2CSC[C@H]2C(=O)O)N1 ([pGlu]-[Thz]-OH) with its measured activity, negative = cell killing. -18.5

Complete the entry with activity, negative = cell killing for C#C[C@]1(O)CC[C@H]2[C@@H]3CCc4cc(O)ccc4[C@H]3CC[C@@]21C 2.3

Return activity, negative = cell killing (reported value) for this compound: CO/N=C(\C(=O)N[C@@H]1C(=O)N2C(C(=O)O)=C(COC(C)=O)CS[C@H]12)c1csc(N)n1 (stereo in doubt) -2.27

Output activity, negative = cell killing of CCOc1ccc2nc(S(N)(=O)=O)sc2c1 1.48

Give recorded activity, negative = cell killing. O=C(O)c1ccccc1Nc1cccc(C(F)(F)F)c1 -6.5

Quote activity, negative = cell killing reported for S=c1[nH]c2ccccc2s1 please. -8.66

For the compound O=C(CS)Nc1ccccc1 , report activity, negative = cell killing. -39.6

For the compound O=C(O)c1cc(O)c(O)c(O)c1 , give its measured activity, negative = cell killing value. 20.7

Quote activity, negative = cell killing reported for CCCCCCCCCCCCCCCC(=O)OC(C)C please. 4.29

All figures here come from PubChem BioAssay (NCATS).
